Biological target: C-X-C chemokine receptor type 5 (Homo sapiens) (UniProt P32302)
Assay: CXCR6 and CXCR5 receptor antagonist panel, profiling panel, selectivity assay for CXCR6 antagonist project, cell-based, CHO-K1 PathHunter beta-arrestin, luminescence, set 4 (AID 651919)
Conditions: run 1, at 79 µM (top of the series)
Observable: inhibition (%)
Give the quantity in %, number only.

Some molecules with known inhibition results, for comparison:
INSERT INTO measurements (molecule, measurement_target, observable, result_unit, numeric_readout) VALUES
  ('COc1ccc(NC(=O)CN2C3CCCC2CC(NC(=O)c2ccc(OC)c(OC)c2)C3)cc1 (centres undefined)', 'C-X-C chemokine receptor type 5 (Homo sapiens) (UniProt P32302)', 'inhibition', '%', -3.99),
  ('COc1cc(OC)cc(C(=O)NC2CC3CCCC(C2)N3CC(=O)Nc2ccc(C)cc2)c1 (centres undefined)', 'C-X-C chemokine receptor type 5 (Homo sapiens) (UniProt P32302)', 'inhibition', '%', 8.41),
  ('O=C(CN1C2CCCC1CC(NC(=O)c1ccc3c(c1)OCO3)C2)Nc1ccccc1 (centres undefined)', 'C-X-C chemokine receptor type 5 (Homo sapiens) (UniProt P32302)', 'inhibition', '%', 27.8),
  ('COc1cccc(C(=O)NC2CC3CCCC(C2)N3CC(=O)Nc2ccc(F)cc2)c1 (centres undefined)', 'C-X-C chemokine receptor type 5 (Homo sapiens) (UniProt P32302)', 'inhibition', '%', -4.11),
  ('O=C(CN1C2CCCC1CC(NC(=O)c1ccc3c(c1)OCO3)C2)Nc1ccc(F)cc1 (centres undefined)', 'C-X-C chemokine receptor type 5 (Homo sapiens) (UniProt P32302)', 'inhibition', '%', 6.87),
  ('COc1cc(OC)cc(C(=O)NC2CC3CCCC(C2)N3CC(=O)Nc2ccccc2)c1 (centres undefined)', 'C-X-C chemokine receptor type 5 (Homo sapiens) (UniProt P32302)', 'inhibition', '%', 37.4);

Any idea what inhibition was measured for COc1cc(C(=O)NC2CC3CCCC(C2)N3CC(=O)Nc2ccc(F)cc2)cc(OC)c1OC (centres undefined) ?
1.06

Given the entry COc1cc(C(=O)NC2CC3CCCC(C2)N3CC(=O)Nc2ccc(Cl)cc2)cc(OC)c1OC (centres undefined) , report its measured inhibition.
-11.9

What measured inhibition goes with COc1ccc(NC(=O)CN2C3CCCC2CC(NC(=O)c2cc(OC)c(OC)c(OC)c2)C3)cc1 (centres undefined) ?
-6.42

Which inhibition value belongs to COc1ccc(NC(=O)CN2C3CCCC2CC(NC(=O)c2ccc4c(c2)OCO4)C3)cc1 (centres undefined) ?
21

# input molecule: COc1ccc(NC(=O)CN2C3CCCC2CC(NC(=O)c2cccc(OC)c2)C3)cc1 (centres undefined) ; wanted: its inhibition
8.8

Please report the recorded inhibition for COc1ccc(C(=O)NC2CC3CCCC(C2)N3CC(=O)Nc2ccc(Cl)cc2)cc1 (centres undefined) .
34.5

Quick check: inhibition of COc1cc(C(=O)NC2CC3CCCC(C2)N3CC(=O)Nc2ccc(C)cc2)cc(OC)c1OC (centres undefined) ?
2.28

Quick check: inhibition of COc1ccc(NC(=O)CN2C3CCCC2CC(NC(=O)c2cc(OC)cc(OC)c2)C3)cc1 (centres undefined) ?
22.9

----------
Target: C-X-C chemokine receptor type 5 (Homo sapiens) (UniProt P32302)
Experiment: CXCR6 and CXCR5 receptor antagonist panel, profiling panel, selectivity assay for CXCR6 antagonist project, cell-based, CHO-K1 PathHunter beta-arrestin, luminescence, set 4 (AID 651919)
Conditions: run 1, at 79 µM (top of the series)
This listing pairs compounds with measured inhibition.
Reply numerically in %, unit not repeated.

INSERT INTO measurements (compound, result_unit, numeric_readout) VALUES
  ('COc1cc(OC)cc(C(=O)NC2CC3CCCC(C2)N3CC(=O)Nc2ccc(F)cc2)c1 (stereo not given)', '%', 32.4),
  ('COc1ccc(NC(=O)CN2C3CCCC2CC(NC(=O)c2ccc(OC)cc2)C3)cc1 (stereo not given)', '%', -6.48),
  ('COc1cccc(C(=O)NC2CC3CCCC(C2)N3CC(=O)Nc2ccc(Cl)cc2)c1 (stereo not given)', '%', -2.39),
  ('COc1cccc(C(=O)NC2CC3CCCC(C2)N3CC(=O)Nc2ccccc2)c1 (stereo not given)', '%', 10.5);

Return reported inhibition; argument: COc1ccc(C(=O)NC2CC3CCCC(C2)N3CC(=O)Nc2ccc(C)cc2)cc1OC (stereo not given)
22.7

Provenance of the data: PubChem BioAssay AID651919
